Data credit: patent US20150246947A1

Please provide measured CAT EC50 for the entries that follow.
Molecular target: T1, human Protein S (human, UniProt P07225 42-676)
T1 sequence: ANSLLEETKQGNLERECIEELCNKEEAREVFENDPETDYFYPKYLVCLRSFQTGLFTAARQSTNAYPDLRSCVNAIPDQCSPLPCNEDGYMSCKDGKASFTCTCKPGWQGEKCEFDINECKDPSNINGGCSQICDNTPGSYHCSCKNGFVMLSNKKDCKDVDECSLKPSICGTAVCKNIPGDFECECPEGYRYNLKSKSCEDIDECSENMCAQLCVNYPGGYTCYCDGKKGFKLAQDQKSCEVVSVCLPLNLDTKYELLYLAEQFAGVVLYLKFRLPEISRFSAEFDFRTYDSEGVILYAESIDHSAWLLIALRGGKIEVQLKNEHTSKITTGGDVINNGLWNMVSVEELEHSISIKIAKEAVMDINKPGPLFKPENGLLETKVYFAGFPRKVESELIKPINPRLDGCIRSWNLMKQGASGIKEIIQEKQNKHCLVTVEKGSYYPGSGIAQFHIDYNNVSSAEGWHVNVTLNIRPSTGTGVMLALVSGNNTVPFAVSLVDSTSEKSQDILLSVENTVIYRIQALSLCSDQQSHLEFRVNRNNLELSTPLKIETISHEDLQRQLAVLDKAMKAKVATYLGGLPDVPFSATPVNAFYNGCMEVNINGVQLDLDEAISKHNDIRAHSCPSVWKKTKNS
Test: cell-based or functional assay
Non-standard residues stand in square brackets, D forms with d. Tle = CC(C)(C)[C@H](N)C(=O)O
Give your result as the value with the unit written after it.

Examples with answers:
- binder: "Ac-TGLVSAGWYDYNFDTYTEFT-NH2 [JBS3188]"
  CAT EC50: "155 nM"
- binder: "Ac-TGLVSAGWYDYNNDVYREFT-NH2 [JBS3195]"
  CAT EC50: "139 nM"
- binder: "Ac-YGLVSAGWYDYNFDTYREFT-NH2 [JBS3190]"
  CAT EC50: "130 nM"
- binder: "Ac-TGLVSAGWYDYNNDHYMEFT-NH2 [JBS3198]"
  CAT EC50: "149 nM"
- binder: "Ac-TGLVSAGWYDYNFDHYREFT-NH2 (also called parent peptide JBS2572) [JBS2572]"
  CAT EC50: "151 nM"
- binder: "Ac-TGLVSAGWYDYNFDTYMEFT-NH2 [JBS3186]"
  CAT EC50: "176 nM"
- binder: "Ac-TGLVEAGWYDYNFDVYREFT-NH2 [JBS3193]"
  CAT EC50: "116 nM"

Switching to the query record.
Problem: Give its CAT EC50 value. Item: Ac-TGL[Tle]SAGWYDYNFDHYMEFT-NH2 [JBS3203]
Solution: 127 nM
